Recorded pull-down binding Z-score values for a group of sequences are listed next.
- System: TO-3-N3 (biotin conjugate)
- assay.info: pull-down binding Z-score (relative to library population); higher = stronger binding
- measurement.setup: RNA library: Library-2
metric: pull-down binding Z-score

residues: UCUCAAAAUAAUUCUGCAGUGAGA [hsa-mir-4524b]
value.reported: -0.872

residues: GUUCAGAGUCUGUUUUUGUCUAGC [hsa-mir-29c]
value.reported: -0.508

residues: CGGUGGUCCCUCCCG [hsa-mir-3687-1_3687-2]
value.reported: 0.0703

residues: CAUGUAUGUGUAUAUACAUAUAUAUG [hsa-mir-297]
value.reported: 0.635

residues: CUAUUCAAACAAUUGUUGAGGUUCAACCUCAAUUAGAGAUGGAACUUACACCAGUUGUUCAGACUAUUGAAGUGAAUAGUUUUAG [SHAPE_invivo_SARS-CoV-2_Multi_36_ComplexLevel_1]
value.reported: -0.49
